molecular target: Cytochrome P450 1A2 (Homo sapiens)
Sequence (P05177 whole entry): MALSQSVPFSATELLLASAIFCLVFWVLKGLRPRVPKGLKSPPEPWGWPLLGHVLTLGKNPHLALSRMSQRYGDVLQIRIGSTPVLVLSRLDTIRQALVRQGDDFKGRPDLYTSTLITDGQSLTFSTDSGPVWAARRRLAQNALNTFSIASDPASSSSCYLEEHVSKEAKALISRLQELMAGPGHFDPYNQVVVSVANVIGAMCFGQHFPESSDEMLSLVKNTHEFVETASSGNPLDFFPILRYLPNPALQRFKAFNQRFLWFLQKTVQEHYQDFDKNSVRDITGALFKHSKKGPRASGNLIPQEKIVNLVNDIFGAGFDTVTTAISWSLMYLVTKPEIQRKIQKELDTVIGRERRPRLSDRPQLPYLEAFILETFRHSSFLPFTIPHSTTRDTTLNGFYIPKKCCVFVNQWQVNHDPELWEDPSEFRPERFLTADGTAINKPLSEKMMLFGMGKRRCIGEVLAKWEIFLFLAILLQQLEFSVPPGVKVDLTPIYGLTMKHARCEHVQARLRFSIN
reported_metric: IC50

Give IC50 for O=C(c1cccn2ccnc12)N1CCN(CCc2ccc(F)cc2F)CC1 tested on Cytochrome P450 1A2 (Homo sapiens).
> 40 µM

* * *

experiment: Half life in rat liver microsomes; format: ADME, Microsome
reported_metric: half-life (min)
Please respond with the number in min and leave the unit unwritten.

Please look at this compound and report its half-life: O=C(c1cccn2ccnc12)N1CCN(CCc2ccc(F)cc2F)CC1
16

* * *

assay: Half life in po dosed rat; type: ADME, organism-based; conditions: in vivo
As shown below, each of these compounds has a reported half-life value.
Note: unit min is implicit; provide only the numeric part.

Cn1cc(Br)c(C(=O)N2CCN(CCc3ccc(F)cc3)CC2)n1 ... 84

Return half-life (reported value) for this compound: O=C(c1cccn2ccnc12)N1CCN(CCc2ccc(F)cc2F)CC1
30

* * *

tested on: Rattus norvegicus; experiment: Total clearance in iv dosed rat; type: ADME, organism-based; settings: in vivo
# key: entry, value: clearance
Record the result as a number with its unit.

Cn1cc(Br)c(C(=O)N2CCN(CCc3ccc(F)cc3)CC2)n1 ... 155 mL/min/kg

Look up Rattus norvegicus data: clearance of O=C(c1cccn2ccnc12)N1CCN(CCc2ccc(F)cc2F)CC1 , then report it.
58.3 mL/min/kg

* * *

target: Cytochrome P450 3A4 (Homo sapiens)
Sequence (P08684 whole entry): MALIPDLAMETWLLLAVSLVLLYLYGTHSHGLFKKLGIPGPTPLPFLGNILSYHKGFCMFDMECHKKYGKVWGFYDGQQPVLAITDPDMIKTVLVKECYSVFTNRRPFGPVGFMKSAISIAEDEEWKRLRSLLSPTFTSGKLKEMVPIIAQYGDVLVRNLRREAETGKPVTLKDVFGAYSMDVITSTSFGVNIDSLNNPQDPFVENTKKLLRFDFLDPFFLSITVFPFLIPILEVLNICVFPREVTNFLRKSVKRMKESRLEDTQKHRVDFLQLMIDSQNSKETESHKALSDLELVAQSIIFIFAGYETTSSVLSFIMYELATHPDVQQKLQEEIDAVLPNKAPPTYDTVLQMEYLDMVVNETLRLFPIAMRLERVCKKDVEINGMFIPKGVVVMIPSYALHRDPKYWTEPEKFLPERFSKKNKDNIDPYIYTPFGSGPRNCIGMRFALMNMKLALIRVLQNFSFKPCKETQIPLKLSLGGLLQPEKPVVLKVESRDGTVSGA
reported_metric: IC50

Provide measured IC50 on Cytochrome P450 3A4 (Homo sapiens) for O=C(c1cccn2ccnc12)N1CCN(CCc2ccc(F)cc2F)CC1 please.
> 40 µM

* * *

Quick note: these are Ki numbers for system: 5-hydroxytryptamine receptor 2A (Homo sapiens)
Sequence (P28223 whole entry): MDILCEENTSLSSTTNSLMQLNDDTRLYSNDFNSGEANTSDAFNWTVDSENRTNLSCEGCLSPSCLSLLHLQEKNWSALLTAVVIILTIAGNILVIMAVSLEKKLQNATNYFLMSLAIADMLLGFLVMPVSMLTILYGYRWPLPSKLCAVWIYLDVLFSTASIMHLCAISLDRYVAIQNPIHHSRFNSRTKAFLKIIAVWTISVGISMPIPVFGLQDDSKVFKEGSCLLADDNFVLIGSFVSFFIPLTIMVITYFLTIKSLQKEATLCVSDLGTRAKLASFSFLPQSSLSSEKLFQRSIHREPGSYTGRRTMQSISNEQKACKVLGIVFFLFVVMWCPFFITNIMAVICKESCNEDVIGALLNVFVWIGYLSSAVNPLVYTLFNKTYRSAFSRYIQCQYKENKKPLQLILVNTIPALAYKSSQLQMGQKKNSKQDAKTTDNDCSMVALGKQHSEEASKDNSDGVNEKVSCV
Answer with a number only, understood to be in nM.

O=C(c1nn2ccccc2c1Cl)N1CCN(CCc2ccc(F)cc2F)CC1 ... 0.6
O=C(c1cnn2cccnc12)N1CCN(CCc2ccc(F)cc2F)CC1 ... 3.8
Nc1cccc2nc(C(=O)N3CCN(CCc4ccc(F)cc4F)CC3)cn12 ... 1.4
O=C(c1nn2ccccc2c1Br)N1CCN(CCc2ccc(F)cc2F)CC1 ... 0.8

Fill in Ki for record O=C(c1cccn2cc(Br)nc12)N1CCN(CCc2ccc(F)cc2F)CC1
1.7

Give Ki for N#Cc1cn2cccc(C(=O)N3CCN(CCc4ccc(F)cc4F)CC3)c2n1
2.8

Input O=C(c1cccn2cc(Cl)nc12)N1CCN(CCc2ccc(F)cc2F)CC1 , output reported Ki.
1.5

Output measured Ki for this item: O=C(c1cn2ccccc2n1)N1CCN(CCc2ccc(F)cc2F)CC1
4.3

* * *

target: Cytochrome P450 2C9 (Homo sapiens, UniProt P11712)
Sequence (P11712 whole entry): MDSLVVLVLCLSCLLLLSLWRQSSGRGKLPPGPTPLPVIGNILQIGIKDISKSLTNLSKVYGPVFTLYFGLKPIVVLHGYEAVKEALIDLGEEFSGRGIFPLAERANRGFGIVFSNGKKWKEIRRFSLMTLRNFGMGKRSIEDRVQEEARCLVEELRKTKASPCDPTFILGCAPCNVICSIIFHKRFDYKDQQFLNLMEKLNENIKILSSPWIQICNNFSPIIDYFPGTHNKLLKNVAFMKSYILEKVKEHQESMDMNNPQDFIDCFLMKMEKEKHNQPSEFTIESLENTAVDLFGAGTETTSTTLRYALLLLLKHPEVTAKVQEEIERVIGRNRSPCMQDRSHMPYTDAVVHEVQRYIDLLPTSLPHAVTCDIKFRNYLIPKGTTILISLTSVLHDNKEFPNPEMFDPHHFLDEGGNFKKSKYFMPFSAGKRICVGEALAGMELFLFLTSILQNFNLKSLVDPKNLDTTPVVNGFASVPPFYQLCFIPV
reported_metric: IC50

Send back Cytochrome P450 2C9 (Homo sapiens, UniProt P11712) IC50 of O=C(c1cccn2ccnc12)N1CCN(CCc2ccc(F)cc2F)CC1 only.
> 40 µM

* * *

test system: Rattus norvegicus; assay: Volume of distribution at steady state in […] rat; assay type: ADME, organism-based; settings: in vivo
reported_metric: Vdss
Just the number plus its unit, please.

O=C(c1cccn2ccnc12)N1CCN(CCc2ccc(F)cc2F)CC1 ... 1.7 L/kg

Moving on to another compound below.
Specify reported Vdss for the compound shown: Cn1cc(Br)c(C(=O)N2CCN(CCc3ccc(F)cc3)CC2)n1
8.1 L/kg

* * *

assay: Plasma protein binding in human; assay type: ADME, cell-free; details: read-out: PPB (converted)
reported_metric: fraction unbound
Note: the reply should be a number with no unit written.

Report fraction unbound for O=C(c1cccn2ccnc12)N1CCN(CCc2ccc(F)cc2F)CC1
0.326

* * *

assay: Drug uptake in rat brain at 0.3 mg/kg after 0.75 hrs; format: ADME, organism-based; parameters: dose 0.3 mg/kg; conditions: read-out: Drug uptake
reported_metric: concentration at 0.75 h (ng/mL)
# output: bare number, implied unit ng/mL

Determine its reported concentration at 0.75 h: O=C(c1cccn2ccnc12)N1CCN(CCc2ccc(F)cc2F)CC1
14.5

* * *

experiment: Plasma concentration in rat at 3 mg/kg after 0.75 hrs; assay type: ADME, organism-based; set-up: dose 3 mg/kg
reported_metric: concentration at 0.75 h (ng/mL)
Hi! Could you send only the number? It should be in ng/mL, unit omitted.

Give the measured concentration at 0.75 h for Cn1cc(Br)c(C(=O)N2CCN(CCc3ccc(F)cc3)CC2)n1
8.3
